Tested on: SF-295 CNS
experiment.notes: NCI tumour cell line growth inhibition, 48 h
reported.property: TGI (µM)
Provide only the numeric value, understood in µM.

Solved entries (count: 2):
compound="COC(O)C(=O)c1c2c(cc3c1CCC3)CCCC2 (centres undefined)" system="SF-295 CNS" measurement_unit=µM recorded_value=26
compound=O=C1/C(=C/c2ccc(Cl)cc2)CCC/C1=C\c1ccc(O)c(CN2CCCCC2)c1 system="SF-295 CNS" measurement_unit=µM recorded_value=43.3

// next item, TGI requested
stdin: Return reported TGI; argument: COc1ccc2oc(=O)cc(C3c4ccc([nH]4)C(c4cc(=O)oc5ccc(OC)cc45)c4ccc([nH]4)C(c4cc(=O)oc5ccc(OC)cc45)c4ccc([nH]4)C(c4cc(=O)oc5ccc(OC)cc45)c4ccc3[nH]4)c2c1 (centres undefined)
stdout: 10.6

* * *

Test system: OVCAR-5 ovarian
experiment.notes: NCI tumour cell line growth inhibition, 48 h
reported.property: TGI

compound=Cn1cccc(C(=O)c2ccccc2)c1=O reported_property=TGI recorded_value="> 100 µM"
compound=N#C/C(=C\c1ccc(Cl)cc1)c1nc(-c2cc3ccccc3oc2=O)cs1 reported_property=TGI recorded_value="> 100 µM"
compound="COc1nc(SC)nc2c1C(O)n1c(nc3ccccc31)S2 (stereo not given)" reported_property=TGI recorded_value="> 100 µM"

stdin: # get_value(readout= TGI, system= OVCAR-5 ovarian) for CSC1(C)CC2C(CC1N1CCOCC1)C2(C)C (stereo not given)
stdout: > 100 µM

stdin: Lab request: please report TGI under test system OVCAR-5 ovarian for c1cc2ccc3cc2cc1CNCCN1CCNCc2ccc4ccc(cc4c2)CNCCN(CCNC3)CCNCc2ccc3ccc(cc3c2)CNCC1
stdout: 7.96 µM

stdin: Item: COc1ccc2c(c1)-c1c(c3cc(OC)ccc3n1CCN1CCOCC1)CC2 Test system: OVCAR-5 ovarian Read-out: TGI Value: ?
stdout: > 100 µM

stdin: GET /values?readout=TGI&system=OVCAR-5 ovarian&item= O=C(/C=C/c1ccc(OCc2ccccc2)c(OCc2ccccc2)c1)OCc1ccccc1
stdout: > 100 µM

stdin: Param readout= TGI; system= OVCAR-5 ovarian; entry= CO[C@]12C#CC=CC#C[C@@H](O)[C@]3(CCC1)O[C@@]23c1cccc(O)c1 ; returns value.
stdout: > 100 µM

stdin: For OVCAR-5 ovarian, provide TGI of O=C1/C(=C/c2ccc(Cl)cc2)CCC/C1=C\c1ccc(O)c(CN2CCCCC2)c1 please.
stdout: 50.4 µM

stdin: Entry COc1cc2c3c(n(CCCN(C)C)c(=O)c2cc1OC)-c1cc2c(cc1C3=O)OCO2 , system OVCAR-5 ovarian: what TGI was measured?
stdout: 2.44 µM

stdin: For OVCAR-5 ovarian, provide TGI of O=C1CCC(=O)N1CNc1cccc(NCN2C(=O)CCC2=O)c1 please.
stdout: > 100 µM

stdin: Item O=S1[C@H](c2ccccc2)c2c(-c3ccccc3)sc(-c3ccccc3)c2[C@@H]1c1ccccc1 (stereo not given in full) with OVCAR-5 ovarian - TGI?
stdout: > 100 µM

stdin: Any idea what TGI came out for O=C(O)c1cccc(CN2CCCCC2)c1 on OVCAR-5 ovarian?
stdout: > 100 µM

stdin: Can you look up TGI on OVCAR-5 ovarian for Cc1ccc2nc3ccccc3c(NCc3ccccc3)c2c1 ?
stdout: 9.92 µM
